Data origin: patent US10995099B2

Reported EC50 is given for each of the following compounds.
System: HepG2
measurement.protocol: EC50 in HepG2
Format: cell-based
test.conditions: ND630 versus RJ compounds; read-out: EC50 (μM) ND630/RJ-cmps(%)

Supply reported EC50 belonging to this compound: COc1ccccc1[C@H](Cn1c(=O)n(C(C)(C)C(=O)O)c(=O)c2c(C)c(-c3nnco3)sc21)OC1CCOCC1 [Example 9] > 1 µM

Please indicate EC50 recorded for CNC(=O)C1(n2c(=O)c3c(C)c(Br)sc3n(CC(OC3CCOCC3)c3ccccc3OC)c2=O)CCCC1 (stereo not shown) [Example 50] 0.1 to 1 µM

Indicate the recorded EC50 value for this compound: COc1ccccc1[C@H](Cn1c(=O)n(C2(C(=O)O)CC2)c(=O)c2c(C)c(Br)sc21)OC1CCOCC1 [Example 29] 0.1 to 1 µM

Give EC50 for COc1ccccc1C(Cn1c(=O)n(C2(C(N)=O)CCC2)c(=O)c2c(C)c(Br)sc21)OC1CCOCC1 (stereo not shown) [Example 51] > 1 µM

* * *

Reported IC50 values follow for various compounds
experimental.system: ACC1 (Homo sapiens (Human))
measurement.protocol: In vitro ACC inhibition assay (ADP-Glo), ACC1
Format: biochemical

Below, 3 compounds whose answers are already recorded.
> print(dat)
                                   compound    measured.value
1  COc1ccccc1[C@H](Cn1c(=O)n(C2(C(=O)O)CCC2)c(=O)c2c(C)c(Br)sc21)OC1CCOCC1 [Example 31]  0.001 to 0.01 µM
2  COc1ccccc1C(Cn1c(=O)n(C2(C(N)=O)CCCC2)c(=O)c2c(C)c(-c3ncco3)sc21)OC1CCOCC1 (stereo not shown) [Example 43]  0.001 to 0.01 µM
3  COc1ccccc1[C@H](Cn1c(=O)n(C2(CC(=O)O)CC2)c(=O)c2c(C)c(Br)sc21)OC1CCOCC1 [Example 59]   0.01 to 0.05 µM

Query IC50 for COc1ccccc1[C@H](Cn1c(=O)n(C2(C(=O)O)CC2)c(=O)c2c(C)c(-c3ncco3)sc21)OC1CCOCC1 [Example 33] < 0.001 µM

* * *

// values below are reported IC50
experimental.system: ACC1 (Homo sapiens (Human))
measurement.protocol: In vitro ACC inhibition assay (ADP-Glo), ACC1
Type: biochemical

// known answers, use as guide
> print(dat)
                                   molecule    measured.value
1  COc1ccccc1[C@H](Cn1c(=O)n(C2CCC2C(=O)O)c(=O)c2c(C)c(-c3ncco3)sc21)OC1CCOCC1 (stereo partly drawn)        < 0.001 µM
2  CNC(=O)C1(n2c(=O)c3c(C)c(Br)sc3n(CC(OC3CCOCC3)c3ccccc3OC)c2=O)CCC1 (stereo not drawn)   0.01 to 0.05 µM
3  CNC(=O)CC1(n2c(=O)c3c(C)c(-c4ncco4)sc3n(C[C@H](OC3CCOCC3)c3ccccc3OC)c2=O)CC1  0.001 to 0.01 µM

Return IC50 (reported value) for this molecule: CNC(=O)C1(n2c(=O)c3c(C)c(-c4ncco4)sc3n(CC(OC3CCOCC3)c3ccccc3OC)c2=O)CCCC1 (stereo not drawn) 0.001 to 0.01 µM

Report measured IC50; entry is COc1ccccc1C(Cn1c(=O)n(C2(C(=O)O)CCCC2)c(=O)c2c(C)c(-c3ncco3)sc21)OC1CCOCC1 (stereo not drawn) 0.001 to 0.01 µM

Could you please provide reported IC50 for COc1ccccc1[C@H](Cn1c(=O)n(C(C)(C)C(=O)OC(C)(C)C)c(=O)c2c(C)c(-c3ncco3)sc21)OC1CCOCC1 ? Thanks! 0.001 to 0.01 µM

Annotate the molecule CNC(=O)CC1(n2c(=O)c3c(C)c(Br)sc3n(C[C@H](OC3CCOCC3)c3ccccc3OC)c2=O)CC1 with its measured IC50. 0.001 to 0.01 µM

Fill in reported IC50 for this entry: COc1ccccc1C(Cn1c(=O)n(C2(C(N)=O)CC2)c(=O)c2c(C)c(-c3ncco3)sc21)OC1CCOCC1 (stereo not drawn) 0.001 to 0.01 µM

Name the recorded IC50 of the molecule listed here: COc1ccccc1C(Cn1c(=O)n(C2(C(=O)O)CCC2)c(=O)c2c(C)c(-c3ncco3)sc21)OC1CCOCC1 (stereo not drawn) < 0.001 µM

Dear colleague, please send me the reported IC50 for COc1ccccc1[C@H](Cn1c(=O)n(C2(C(N)=O)CC2)c(=O)c2c(C)c(Br)sc21)OC1CCOCC1 when you can. 0.01 to 0.05 µM

Specify IC50 for COc1ccccc1[C@H](Cn1c(=O)n(C2(CC(=O)O)CC2)c(=O)c2c(C)c(-c3ncco3)sc21)OC1CCOCC1 and stop. 0.01 to 0.05 µM

Provide measured IC50 value, entry: COc1ccccc1C(Cn1c(=O)n(C2(C(N)=O)CCC2)c(=O)c2c(C)c(-c3ncco3)sc21)OC1CCOCC1 (stereo not drawn) 0.001 to 0.01 µM

Return reported IC50. Input molecule: COc1ccccc1[C@H](Cn1c(=O)n(C(C)(C)C(=O)O)c(=O)c2c(C)c(-c3ncco3)sc21)OC1CCOCC1 < 0.001 µM

Give IC50 for the following molecule: COc1ccccc1[C@H](Cn1c(=O)n(C(C)(C)C(=O)OC(C)(C)C)c(=O)c2c(C)c(Br)sc21)OC1CCOCC1 > 0.05 µM

Give reported IC50 value for COC(=O)C1(n2c(=O)c3c(C)c(Br)sc3n(C[C@H](OC3CCOCC3)c3ccccc3OC)c2=O)CCC1 > 0.05 µM

* * *

# maps each entry to its EC50
System: HepG2
measurement.protocol: EC50 in HepG2
Type: cell-based
test.conditions: ND630 versus RJ compounds; read-out: EC50 (μM) ND630/RJ-cmps(%)

Some solved entries appear below for comparison.
> print(dat)
                                   compound  parameter  measured.value
1  COc1ccccc1C(Cn1c(=O)n(C2(CC(=O)O)CC2)c(=O)c2c(C)c(-c3ncco3)sc21)OC1CCOCC1 (stereo not drawn)       EC50          > 1 µM
2  COc1ccccc1[C@@H](Cn1c(=O)n(C2(C(=O)O)CC2)c(=O)c2c(C)c(Br)sc21)OC1CCOCC1       EC50     0.1 to 1 µM

Look up EC50 of COc1ccccc1C(Cn1c(=O)n(C2(C(N)=O)CCCC2)c(=O)c2c(C)c(Br)sc21)OC1CCOCC1 (stereo not drawn) and report it. > 1 µM

* * *

experimental.system: ACC2 (Homo sapiens (Human))
Sequence (O00763 whole entry, species assumed): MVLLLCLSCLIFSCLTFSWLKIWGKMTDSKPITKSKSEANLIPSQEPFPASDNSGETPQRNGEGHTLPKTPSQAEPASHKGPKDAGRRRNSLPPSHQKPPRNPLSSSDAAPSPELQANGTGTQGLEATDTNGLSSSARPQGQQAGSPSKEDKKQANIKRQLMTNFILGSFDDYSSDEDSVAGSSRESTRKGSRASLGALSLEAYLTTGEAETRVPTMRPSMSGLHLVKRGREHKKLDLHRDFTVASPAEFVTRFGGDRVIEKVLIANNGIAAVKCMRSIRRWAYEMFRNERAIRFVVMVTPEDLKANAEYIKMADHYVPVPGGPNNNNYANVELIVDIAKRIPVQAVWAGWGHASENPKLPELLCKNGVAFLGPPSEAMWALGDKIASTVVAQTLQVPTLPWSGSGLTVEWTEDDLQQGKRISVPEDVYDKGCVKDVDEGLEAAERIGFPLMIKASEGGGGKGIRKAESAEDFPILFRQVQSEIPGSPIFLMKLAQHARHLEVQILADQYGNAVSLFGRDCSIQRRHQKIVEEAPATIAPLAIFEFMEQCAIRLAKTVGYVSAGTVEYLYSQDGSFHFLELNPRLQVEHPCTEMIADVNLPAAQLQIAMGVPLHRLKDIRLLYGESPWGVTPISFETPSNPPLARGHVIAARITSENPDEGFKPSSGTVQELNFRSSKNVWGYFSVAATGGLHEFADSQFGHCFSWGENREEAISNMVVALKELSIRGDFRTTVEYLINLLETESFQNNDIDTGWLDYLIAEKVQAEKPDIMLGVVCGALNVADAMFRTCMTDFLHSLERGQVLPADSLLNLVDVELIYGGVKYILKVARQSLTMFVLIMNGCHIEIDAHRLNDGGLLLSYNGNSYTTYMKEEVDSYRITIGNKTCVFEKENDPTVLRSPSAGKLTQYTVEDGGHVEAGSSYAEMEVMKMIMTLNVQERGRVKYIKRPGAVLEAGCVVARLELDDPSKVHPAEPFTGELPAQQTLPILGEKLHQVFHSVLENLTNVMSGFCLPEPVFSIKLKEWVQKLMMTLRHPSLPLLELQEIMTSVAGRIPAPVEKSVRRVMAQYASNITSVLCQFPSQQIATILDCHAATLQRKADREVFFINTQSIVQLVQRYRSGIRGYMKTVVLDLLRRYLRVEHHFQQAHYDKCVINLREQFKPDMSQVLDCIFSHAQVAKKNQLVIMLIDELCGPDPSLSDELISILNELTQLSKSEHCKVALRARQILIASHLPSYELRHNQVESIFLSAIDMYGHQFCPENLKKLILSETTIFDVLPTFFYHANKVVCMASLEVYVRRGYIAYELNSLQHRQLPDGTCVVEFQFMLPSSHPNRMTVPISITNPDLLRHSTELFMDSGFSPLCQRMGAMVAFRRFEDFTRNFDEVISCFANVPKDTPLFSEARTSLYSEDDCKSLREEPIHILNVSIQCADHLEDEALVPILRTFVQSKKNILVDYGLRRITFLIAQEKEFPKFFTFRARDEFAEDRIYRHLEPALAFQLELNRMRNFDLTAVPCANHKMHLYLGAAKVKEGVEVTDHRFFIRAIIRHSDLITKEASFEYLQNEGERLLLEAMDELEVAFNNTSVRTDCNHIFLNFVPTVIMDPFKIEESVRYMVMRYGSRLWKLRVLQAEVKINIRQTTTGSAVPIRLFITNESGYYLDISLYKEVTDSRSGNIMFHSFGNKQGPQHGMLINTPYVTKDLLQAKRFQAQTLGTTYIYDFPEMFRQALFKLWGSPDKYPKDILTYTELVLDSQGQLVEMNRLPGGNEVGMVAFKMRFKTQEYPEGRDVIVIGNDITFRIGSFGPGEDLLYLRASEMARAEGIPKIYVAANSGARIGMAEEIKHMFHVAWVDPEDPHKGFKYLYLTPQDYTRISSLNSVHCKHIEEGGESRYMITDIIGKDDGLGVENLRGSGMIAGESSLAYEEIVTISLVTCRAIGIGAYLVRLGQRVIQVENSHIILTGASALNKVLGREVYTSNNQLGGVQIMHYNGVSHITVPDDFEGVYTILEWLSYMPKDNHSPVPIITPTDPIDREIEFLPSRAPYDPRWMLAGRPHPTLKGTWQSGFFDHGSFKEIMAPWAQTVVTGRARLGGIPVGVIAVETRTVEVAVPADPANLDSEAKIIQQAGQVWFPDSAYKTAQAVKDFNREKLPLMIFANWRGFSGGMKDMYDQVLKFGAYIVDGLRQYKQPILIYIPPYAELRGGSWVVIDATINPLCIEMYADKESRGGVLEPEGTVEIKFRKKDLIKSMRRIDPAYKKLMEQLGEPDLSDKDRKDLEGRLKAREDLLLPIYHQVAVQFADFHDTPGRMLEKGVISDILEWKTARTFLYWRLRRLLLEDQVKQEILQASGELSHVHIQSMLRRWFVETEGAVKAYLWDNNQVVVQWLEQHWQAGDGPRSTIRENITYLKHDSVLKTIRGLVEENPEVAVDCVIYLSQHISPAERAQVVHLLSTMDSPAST
measurement.protocol: In vitro ACC inhibition assay (ADP-Glo), ACC2
Type: biochemical
test.conditions: 5 nM ACC2, 20 μM ATP, 20 μM acetyl-CoA; read-out: IC50 (μM) ACC2
parameter: IC50

> print(dat)
                                   compound  measured.value
1  COc1ccccc1[C@@H](Cn1c(=O)n(C2(C(=O)O)CC2)c(=O)c2c(C)c(-c3ncco3)sc21)OC1CCOCC1 [Example 28]     0.1 to 1 µM
2  COc1ccccc1[C@H](Cn1c(=O)n(C2(C(=O)O)CC2)c(=O)c2c(C)csc21)OC1CCOCC1 [Example 17]          > 1 µM
3  COc1ccccc1C(Cn1c(=O)n(C2(C(=O)O)CC2)c(=O)c2c(C)c(-c3ncco3)sc21)OC1CCOCC1 (stereo not shown) [Example 3]  0.01 to 0.1 µM
4  COc1ccccc1[C@H](Cn1c(=O)n(C(C)(C)C(=O)O)c(=O)c2c(C)c(-c3ncco3)sc21)OC1CCOCC1 [Example 38]       < 0.01 µM
5  COc1ccccc1C(Cn1c(=O)n(C2(C(=O)O)CCC2)c(=O)c2c(C)c(-c3ncco3)sc21)OC1CCOCC1 (stereo not shown) [Example 26]       < 0.01 µM

Give the measured IC50 for CNC(=O)C1(n2c(=O)c3c(C)c(Br)sc3n(CC(OC3CCOCC3)c3ccccc3OC)c2=O)CCC1 (stereo not shown) [Example 52] 0.01 to 0.1 µM

Using known records, supply IC50 for COc1ccccc1[C@H](Cn1c(=O)n(C(C)(C)C(=O)OC(C)(C)C)c(=O)c2c(C)c(-c3ncco3)sc21)OC1CCOCC1 [Example 66] 0.01 to 0.1 µM

For the compound COc1ccccc1C(Cn1c(=O)n(C(C)(C)C(=O)O)c(=O)c2cc(C)c(-c3ncco3)cc21)OC1CCOCC1 (stereo not shown) [Example 11] , give its measured IC50 value. > 1 µM

Return value of IC50 for input COc1ccccc1C(Cn1c(=O)n(C(C)(C)C(=O)O)c(=O)c2c(C)c(Br)sc21)OC1CCOCC1 (stereo not shown) [Example 10] , no commentary. 0.01 to 0.1 µM

Return IC50 for the following compound: COc1ccccc1[C@H](Cn1c(=O)n(C2CCC2C(=O)O)c(=O)c2c(C)c(-c3ncco3)sc21)OC1CCOCC1 (stereo partly shown) [Example 69] < 0.01 µM
